assay: JHH-DIPG-1 glioma cell viability, MIPE5.0 library, CellTiter-Glo luminescence, qHTS (AID 1347067); conditions: JHH-DIPG-1 glioma viability, CellTiter-Glo ATP luminescence;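 note: cells exposed to compound for 48 hours before readout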
Records with an inconclusive call do not appear. Active and inactive are the calls of the source. No cut-off is given here; in the data, nearly all actives have AC50 up to about 26 µM.
property: AC50

For orientation, consider the following solved cases.
{"columns": ["compound", "AC50"],
 "data": [
  ["COC1CC(C(=O)c2ccc3c(N)ncc(-c4ccc(-c5cnn(C)c5)cc4)c3n2)C1 (centres undefined)", "inactive"],
  ["CCN(c1cc(C#CCN2CCOCC2)cc(C(=O)NCc2c(C)cc(C)[nH]c2=O)c1C)C1CCC(N(C)CCOC)CC1 (centres undefined)", "inactive"],
  ["CC(C)(F)C[C@H](N[C@@H](c1ccc(-c2ccc(S(C)(=O)=O)cc2)cc1)C(F)(F)F)C(=O)NC1(C#N)CC1", "inactive"],
  ["O=C(CCCc1ccc2cccnc2n1)NCc1cc(-c2ccc(F)c(C(F)(F)F)c2)no1", "inactive"],
  ["COc1cc(-c2cn(C)c(=O)c3cnccc23)cc(OC)c1CN(C)C", "inactive"],
  ["N#CC(c1ccnc(NCCc2cccnc2)n1)c1nc2ccccc2s1 (centres undefined)", "18.6 µM (active)"],
  ["Cc1c(-c2c(-c3ccc(F)o3)sc3ncnc(O[C@@H](Cc4ccccc4OCc4ccnn4CC(F)(F)F)C(=O)O)c23)ccc(OCCN2CCN(C)CC2)c1Cl", "3.32 µM (active)"],
  ["CC1(N)CCN(c2cnc(-c3cccc(Cl)c3Cl)c(N)n2)CC1", "inactive"]
]}

Read the next record carefully.
Enquiry: Using the record for CC(=O)[C@]1(N)Cc2c(O)c3c(c(O)c2[C@@H](O[C@H]2C[C@H](O)[C@H](O)CO2)C1)C(=O)c1ccccc1C3=O , report its AC50.
Return: 16.6 µM (active)

###

assay: drug combination growth inhibition, ovarian cancer – cell-based, oncology-focused library, rucaparib conditional, profiling panel (AID 1508598); settings: patient-derived ovarian cancer cells, CellTiter-Glo viability, 144 h; at 1.25 µM; OCI-P5x cells; without rucaparib; active compounds read low
Below: a set of entries, each annotated with reported viability.
Answer in %, number only, no unit symbol.

As a guide, the following entries are already answered.
{"columns": ["molecule", "viability (%)"],
 "data": [
  ["O=C(NOC[C@H](O)CO)c1ccc(F)c(F)c1Nc1ccc(I)cc1F", 44.1],
  ["CC(C)c1ccccc1Cc1cc(C(=O)Nc2ccc(S(=O)(=O)c3ccccc3C(C)(C)C)cc2)c(O)c(O)c1O", 97.4],
  ["CNC(=O)c1cc(Oc2ccc(NC(=O)Nc3ccc(Cl)c(C(F)(F)F)c3)c(F)c2)ccn1", 117],
  ["CN1CCN(c2ccc3nc(-c4c(N)c5c(F)cccc5[nH]c4=O)[nH]c3c2)CC1", 90.6],
  ["Nc1cc(C(F)(F)F)c(-c2cc(N3CCOCC3)nc(N3CCOCC3)n2)cn1", 51.3]
]}

Enquiry: Field request: viability | item: C=CC(=O)N1CCC[C@@H](n2nc(-c3ccc(Oc4ccccc4)cc3)c3c(N)ncnc32)C1
Return: 93.7

###

test: viability loss in pontine glioma line – cell-based, SU-DIPG-IV, MIPE4.0, CellTiter-Glo, qHTS, dose response (AID 1347063); details: CellTiter-Glo ATP luminescence;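 note: compound exposure lasted 48 hours before the viability readout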
Records with an inconclusive call do not appear. Calls of active or inactive are those of the source. No cut-off is given here; in the data, nearly all actives have AC50 up to about 30 µM.
API: response.call in true (1) = active, false (0) = inactive

Use the examples below as a reference point.
{"columns": ["molecule", "assignedLabel"],
 "data": [
  ["CC(C)(F)C[C@H](N[C@@H](c1ccc(-c2ccc(S(C)(=O)=O)cc2)cc1)C(F)(F)F)C(=O)NC1(C#N)CC1", "false (0)"],
  ["c1cncc(CN2CCC(n3ncc4c(N5CCOCC5)nc(-c5ccc6[nH]ccc6c5)nc43)CC2)c1", "true (1)"]
]}

Would you kindly look at the next entry?
Enquiry: Hey, what did the test say about O=C(c1ccc(F)c(F)c1Nc1ccc(I)cc1F)N1CC(O)([C@@H]2CCCCN2)C1 ?
Return: true (1)
